src = patent US20200392251A1

# system_under_test: human β-secretase 1 (BACE1), extracellular/catalytic domain (human) (UniProt P56817)
# Sequence (P56817 46-457 limits assumed, form in doubt): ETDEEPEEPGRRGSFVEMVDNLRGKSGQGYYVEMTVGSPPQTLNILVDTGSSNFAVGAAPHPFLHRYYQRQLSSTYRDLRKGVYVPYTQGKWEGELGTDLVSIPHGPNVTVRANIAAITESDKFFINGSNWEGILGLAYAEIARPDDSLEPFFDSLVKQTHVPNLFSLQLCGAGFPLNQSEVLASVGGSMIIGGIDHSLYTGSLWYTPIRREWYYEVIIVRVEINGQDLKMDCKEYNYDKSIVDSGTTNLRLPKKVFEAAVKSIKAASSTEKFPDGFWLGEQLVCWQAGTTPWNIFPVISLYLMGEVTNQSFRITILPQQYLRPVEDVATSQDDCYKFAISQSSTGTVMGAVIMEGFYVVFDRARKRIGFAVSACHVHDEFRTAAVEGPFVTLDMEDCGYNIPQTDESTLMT
# test_description: FRET peptide inhibition assay; KI=IC50/(S/Km+1)
Overview of recorded pKi for various binders
On this scale, pKi is minus log10 of a concentration expressed in M (mol/L).

binder	numeric_result
anti-BACE1 IgG B1A4 (antibody, V domains shown) VH: EVQLVESGGGLVQPGGSLRLSCAASGFNISYSSIHWVRQAPGKGLEWVAYISPSSSYTSYADSVKGRFTISADTSKNTAYLQMNSLRAEDTAVYYCARHYYVSVGSGIDYWGQGTLVTVSS VL: DIQMTQSPSSLSASVGDRVTITCRASQSVSSAVAWYQQKPGKAPKLLIYSASSLYSGVPSRFSGSRSGTDFTPTISSLQPEDFATYYCQQASASPYALITFGQGTKVEIKR	7.46
anti-BACE1 Fab B2B3 (Fab, V domains shown) VH: EVQLVESGGGLVQPGGSLRLSCAASGFNISYSSIHWVRQAPGKGLEWVAYISSYSSSTYYADSVKGRFTISADTSKNTAYLQMNSLRAEDTAVYYCARSASGIDYWGQGTLVTVSS VL: DIQMTQSPSSLSASVGDRVTITCRASQSVSSAVAWYQQKPGKAPKLLIYSASSLYSGVPSRFSGSRSGTDFTLTISSLQPEDFATYYCQQSGYAPFTFGQGTKVEIKR	7.00

# context switch: different binder, same pKi
Retrieve pKi measured for anti-BACE1 Fab B1B3 (Fab, V domains shown) VH: EVQLVESGGGLVQPGGSLRLSCAASGFNISYYSMHWVRQAPGKGLEWVASISPYYGSTYYADSVKGRFTISADTSKNTAYLQMNSLRAEDTAVYYCARERSSCPVGWRDSRFGADGYGLEYWGQGTLVTVSS VL: DIQMTQSPSSLSASVGDRVTITCRASQSVSSAVAWYQQKPGKAPKLLIYSASSLYSGVPSRFSGSRSGTDFTLTISSLQPEDFATYYCQQSGHYHSLITFGQGTKVEIKR and print it.
6.68
